System: BV-2
Assay: Inhibition of LPS-induced nitric oxide production in mouse BV2 cells assessed as nitric oxide level at 20 uM pre-incubated before LPS stimulation by Griess reagent based assay (reference value: 121.09%)
Type: functional
Parameters: scale not given: the % may be the effect or the level left
Activity for assorted molecules

- Compound Structure: "O=C1COCCN1c1ccc(/N=C\\c2cn(C(=O)c3ccc(Cl)cc3)c3ccccc23)cc1"
  Units: "%"
  Activity: 100.905
- Compound Structure: "O=C1COCCN1c1ccc(/N=C\\c2c[nH]c3ccccc23)cc1"
  Units: "%"
  Activity: 104.8643
- Compound Structure: "O=C1COCCN1c1ccc(/N=C\\c2cn(C(=O)c3ccccc3)c3ccccc23)cc1"
  Units: "%"
  Activity: 98.08
- Compound Structure: "O=C1COCCN1c1ccc(/N=C\\c2cn(Cc3ccccc3)c3ccccc23)cc1"
  Units: "%"
  Activity: 103.8462
- Compound Structure: "Cc1ccc(S(=O)(=O)n2cc(/C=N\\c3ccc(N4CCOCC4=O)cc3)c3ccccc32)cc1"
  Units: "%"
  Activity: 108.2579
- Compound Structure: "O=C1COCCN1c1ccc(/N=C/c2cn(CCCn3cc(/C=N/c4ccc(N5CCOCC5=O)cc4)c4ccccc43)c3ccccc23)cc1"
  Units: "%"
  Activity: 102.1493

###

Test: Cytotoxicity in mouse BV2 cells assessed as cell viability at 0.5 uM incubated for 48 hrs by MTT assay (reference value: 100%)
Format: cell-based, BV-2
Settings: read-out: Activity
viability at 48 h, 0.5 µM for assorted compounds

- Compound Structure: "Cc1ccc(S(=O)(=O)n2cc(/C=N\\c3ccc(N4CCOCC4=O)cc3)c3ccccc32)cc1"
  Units: "%"
  viability at 48 h, 0.5 µM: 90.9
- Compound Structure: "O=C1COCCN1c1ccc(/N=C/c2cn(CCCn3cc(/C=N/c4ccc(N5CCOCC5=O)cc4)c4ccccc43)c3ccccc23)cc1"
  Units: "%"
  viability at 48 h, 0.5 µM: 99.9
- Compound Structure: "O=C1COCCN1c1ccc(/N=C\\c2c[nH]c3ccccc23)cc1"
  Units: "%"
  viability at 48 h, 0.5 µM: 104
- Compound Structure: "O=C1COCCN1c1ccc(/N=C\\c2cn(Cc3ccc(F)cc3)c3ccccc23)cc1"
  Units: "%"
  viability at 48 h, 0.5 µM: 102
- Compound Structure: "O=C1COCCN1c1ccc(/N=C\\c2cn(C(=O)c3ccccc3)c3ccccc23)cc1"
  Units: "%"
  viability at 48 h, 0.5 µM: 104
- Compound Structure: "O=C1COCCN1c1ccc(/N=C\\c2cn(Cc3ccccc3)c3ccccc23)cc1"
  Units: "%"
  viability at 48 h, 0.5 µM: 86.6
- Compound Structure: "O=C1COCCN1c1ccc(/N=C\\c2cn(C(=O)c3ccc(Cl)cc3)c3ccccc23)cc1"
  Units: "%"
  viability at 48 h, 0.5 µM: 95.2

###

Assay: Cytotoxicity in mouse BV2 cells assessed as cell viability at 10 uM incubated for 48 hrs by MTT assay (reference value: 100%)
Format: cell-based, BV-2
Conditions: read-out: Activity
viability at 48 h, 10 µM for assorted molecules
Quantity: viability at 48 h, 10 µM (%)

- Compound Structure: "O=C1COCCN1c1ccc(/N=C\\c2cn(C(=O)c3ccccc3)c3ccccc23)cc1"
  Quantity: "viability at 48 h, 10 µM"
  Test Value: 88.6
- Compound Structure: "O=C1COCCN1c1ccc(/N=C\\c2cn(Cc3ccccc3)c3ccccc23)cc1"
  Quantity: "viability at 48 h, 10 µM"
  Test Value: 91.3
- Compound Structure: "O=C1COCCN1c1ccc(/N=C\\c2cn(Cc3ccc(F)cc3)c3ccccc23)cc1"
  Quantity: "viability at 48 h, 10 µM"
  Test Value: 90
- Compound Structure: "O=C1COCCN1c1ccc(/N=C\\c2cn(C(=O)c3ccc(Cl)cc3)c3ccccc23)cc1"
  Quantity: "viability at 48 h, 10 µM"
  Test Value: 90.1
- Compound Structure: "O=C1COCCN1c1ccc(/N=C/c2cn(CCCn3cc(/C=N/c4ccc(N5CCOCC5=O)cc4)c4ccccc43)c3ccccc23)cc1"
  Quantity: "viability at 48 h, 10 µM"
  Test Value: 91.3
